Measured values drawn from patent US4576949A for this set.

- Test system: LTC/LTD
- Assay Overview: inhibition of leukotriene C and D (LTC/LTD) synthesis in vitro
- Type: cell-based
- Stated Conditions: 1.0 μg; read-out: LTC/LTD inhibition, expressed as % of control, at 1.0
Parameter Measured: activity at 1 µg (%)
Could you give me the number in %? Just the number is fine.

{"columns": ["Compound", "Units Symbol", "activity at 1 µg"],
 "data": [
  ["COC(=O)C=Cc1cc2c(nc1C)C(=Cc1ccccc1)CCC2", "%", 99]
]}

Dear colleague, I am looking for the recorded activity at 1 µg of the following compound: CCOC(=O)c1cc2c(nc1C)C(CC(=O)CCCO)CCC2 (stereo not drawn)
52

###

- Tested on: LTC/LTD
- Assay Overview: inhibition of leukotriene C and D (LTC/LTD) synthesis in vitro
- Assay type: cell-based
- Stated Conditions: 1.0 μg; read-out: LTC/LTD inhibition, expressed as % of control, at 1.0
Parameter Measured: activity at 1 µg (%)
Could you give me the number in %? Just the number is fine.

Field: example entries. Status: answers known.
{"columns": ["Compound", "activity at 1 µg, %"],
 "data": [
  ["CC(=O)Oc1ccc(C=C2CCc3cccnc32)cc1", 88],
  ["CCOC(=O)c1cc2c(nc1C)C(CC1CCCO1)CCC2 (stereo not shown) [N; XIX; n 1; R8 CH3; R9 CO2 Et]", 67],
  ["CCOC(=O)c1cc2c(nc1C)C(CCCCCO)CCC2 (stereo not shown)", 121],
  ["C(=C1CCc2cccnc21)c1cccs1 [N; XV; n 0; R8 H; R9 H]", 67]
]}

Field: activity at 1 µg (LTC/LTD). Entry: CCOC(=O)c1cc2c(nc1C)C(=Cc1ccc(OC(C)=O)cc1)CCC2
78

Field: activity at 1 µg (LTC/LTD). Entry: CCOC(=O)c1cc2c(nc1C)C(=Cc1ccccc1)CCC2
101

Field: activity at 1 µg (LTC/LTD). Entry: C(=C1CCCc2cccnc21)c1ccccc1 [N; XII wherein M is H; n 1; R8 H; R9 H]
105
